For each of the compounds below, state its Curve Class.
system: CIB1 and αIIb interaction (CIB1-GST : F-αIIb peptide) (Homo sapiens, UniProt Q99828)
Construct: made in house; host or cells: BL-21 plus RIL cells (E. coli)
Sequence (Q99828 whole entry): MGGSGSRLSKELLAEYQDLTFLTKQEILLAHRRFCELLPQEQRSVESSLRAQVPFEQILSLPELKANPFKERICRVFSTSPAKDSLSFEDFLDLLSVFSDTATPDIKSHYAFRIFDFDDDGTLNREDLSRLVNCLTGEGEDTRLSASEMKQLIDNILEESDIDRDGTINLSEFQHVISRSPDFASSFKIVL
assay-text: FP assay, 1536-well qHTS format (primary and confirmatory screen)
Format: binding
conditions: qHTS primary screen hits, Table S2; negative sign = inhibitory curve
Response field accepts a number only; no unit should be typed.

-- ask Any idea what Curve Class was measured for CN(C)c1cccc(N2CCN(c3nn4c(=O)c5ccccc5nc4s3)CC2)c1.Cl [NCGC00187811-01] ?
-- reply -2.4

-- ask What value of Curve Class has been recorded for this entry: O=C(NC1=CC(=O)c2ccccc2C1=O)c1ccccc1.O=C(O)C(F)(F)F [NCGC00357425-01]
-- reply -1.1

-- ask Requested field: Curve Class. Item: Cc1ccc(C)n1-c1cnccc1C(=O)O.O=C(O)C(F)(F)F [NCGC00273496-01]
-- reply -2.4

-- ask What value of Curve Class has been reported for the following compound? Cc1ccc(S(=O)(=O)Nc2cnccc2C(=O)Nc2nc(-c3nc4ccccc4s3)cs2)cc1.O=C(O)C(F)(F)F [NCGC00343736-01]
-- reply -1.2

-- ask If you can, please state the reported Curve Class value of O=C(O)C1NCc2[nH]cnc2C1c1ccccc1 (stereo not drawn) [NCGC00167998-01] .
-- reply -2.4

-- ask Give its Curve Class value. Item: O=c1[nH]sc2cc(Cl)ccc12 [NCGC00262908-01, ticlatone, reference compound]
-- reply -1.2

-- ask Look up Curve Class: NS(=O)(=O)c1cccc2c1c([N+](=O)[O-])cc1nc(O)c([O-])nc12.[Na+] [NCGC00024961-03]
-- reply -1.2

-- ask So what's the measured Curve Class for this one? Cc1ccc(S(=O)(=O)Nc2cnccc2C(=O)Nc2ccc(-c3nnn[nH]3)cc2)cc1.O=C(O)C(F)(F)F [NCGC00343837-01]
-- reply -2.4

-- ask Suppose we examine the compound COc1ccc(Br)cc1S(=O)(=O)NC(=O)/C=C/c1ccccc1Cc1ccc2ccccc2c1 [NCGC00260960-01] ; what Curve Class value has been reported?
-- reply -2.2

-- ask Query: Curve Class; subject: Cc1nc(N=Nc2cc(S(=O)(=O)O)c3cc([N+](=O)[O-])cc(S(=O)(=O)O)c3c2)c(COP(=O)(O)O)c(C=O)c1O (stereo in doubt) [NCGC00162294-03]
-- reply -1.2

-- ask I have this compound here, O=C(O)C(F)(F)F.O=C(c1cnc(N2CCCCC2)c2ccccc12)N1CCN(c2ccccc2)CC1 [NCGC00262736-01] , and I need its recorded Curve Class.
-- reply -3

-- ask Look up Curve Class for this compound: Fc1ccc(C(c2ccc(F)cc2)N2CCN(C/C=C/c3ccccc3)CC2)cc1 [NCGC00018102-06]
-- reply -2.1

-- ask Can you share its Curve Class? I mean this compound: N#Cc1cc2nc([O-])c([O-])nc2cc1[N+](=O)[O-].[Na+].[Na+] [NCGC00015198-04]
-- reply -2.2

-- ask Requested field: Curve Class. Item: CNC[C@H](O)c1ccc(O)c(O)c1 [NCGC00015417-04]
-- reply -2.4

-- ask Which Curve Class value is on record for Cc1ccc(O)c2ncccc12 [NCGC00164506-02] ?
-- reply -2.2

-- ask # get_value(readout='Curve Class', item= O=C1NC(=O)/C(=C/c2ccc3c(c2)OC(F)(F)O3)S1 [NCGC00261190-01] )
-- reply -1.2

-- ask I have this compound here, CC(=O)NC(c1ccco1)c1cc(F)c2cccnc2c1O (stereo not drawn) [NCGC00183702-01] , and I need its recorded Curve Class.
-- reply -2.4

-- ask Form field: reported Curve Class of CN(C)c1ccc(C(=C2C=CC(=[N+](C)C)C=C2)c2ccc(N(C)C)cc2)cc1.[Cl-] [NCGC00091112-09]
-- reply -2.4

-- ask For the compound shown here, NC(=O)c1cccc(-c2cnc3c(O)ccc(C(=O)O)c3c2)c1.O=C(O)C(F)(F)F [NCGC00241055-01] , give the reported Curve Class.
-- reply -2.4

-- ask Look up Curve Class for this compound: Nc1nc(N)c2nc(CNc3ccc(C(=O)NC(CCC(=O)O)C(=O)O)cc3)cnc2n1 (stereo not drawn) [NCGC00015038-09]
-- reply -2.2

-- ask Reported Curve Class, compound CN(C)CCCNc1cc(O)c2ncccc2c1.O=C(O)C(F)(F)F [NCGC00183792-01] : ____
-- reply -2.4

-- ask For the compound Cc1ccc(N)cc1O [NCGC00090702-02] , what Curve Class is on record?
-- reply -2.2

-- ask Entry under review: CCOC(=O)c1csc(-n2nc(-c3ccc(F)c(F)c3)cc2O)n1 [NCGC00356457-01] . Reported Curve Class?
-- reply -2.4

-- ask # get_value(readout='Curve Class', item= Cc1c(OCC(F)(F)F)ccnc1C[S+]([O-])c1nc2ccccc2[nH]1 (stereo not drawn) [NCGC00015615-15] )
-- reply -2.4
